System: A498 renal
Measurement notes: NCI tumour cell line growth inhibition, 48 h
Hi, to clarify the labels: MET covers TGI from 30 µM upward, NOT MET covers anything below 30 µM.

Example cases with answers are listed next.
O=C(/C=C/c1ccccc1)CC(c1ccccc1)N1CCOCC1 (stereo not given)
NOT MET
COc1ccc(C2(CC(C)O)SCCCS2)cc1 (stereo not given)
MET
Cn1cc(-c2csc(-c3cn(C)c4ccccc34)n2)c2cnccc21
NOT MET
OB1OCc2cc(/C=C/c3cccc(C(F)(F)F)c3)ccc21
NOT MET
O=C/C(=C(/Cl)c1ccc(O)cc1)c1ccccc1
MET

Incoming: Does O=C1C[C@H](Sc2ccccc2)C2(OCCO2)[C@@H](Sc2ccccc2)C1 have a reported TGI of at least 30 µM?
Outgoing: MET

###

System: COLO 205 colon
Measurement notes: NCI tumour cell line growth inhibition, 48 h
TGI reference

Please review the following examples before continuing.
CCN(CCO)CC1COc2ccccc2O1 (stereo not drawn)
> 100 µM
C[n+]1c2ccccc2cc2c(CNC(CCCN=C(N)N)C(=O)O)cccc21 (stereo not drawn)
0.686 µM
O=c1ncccn1C1C=C(CO)C(O)C1O (stereo not drawn)
> 50 µM
CC1=C(C(=O)Nc2ccccc2C)C(/C=C/c2ccccc2)C(C(=O)Nc2ccccc2C)=C(C)N1
> 100 µM
NC(=O)c1cccc(Nc2nccc(Nc3cccc(F)c3)n2)c1
> 17.9 µM

Incoming: Short answer please: TGI, COLO 205 colon, entry CCOC1Oc2ccccc2-c2oc(=O)c(Sc3ccc(C)cc3)cc21 (stereo not drawn)
Outgoing: > 100 µM

Incoming: Under COLO 205 colon: TGI value of CCOC(=O)/C=C(\C)c1ccc(C)cc1C ?
Outgoing: > 100 µM

Incoming: Query for COLO 205 colon: what TGI does the record show for NNC(=O)c1ccc[n+](CCc2ccccc2)c1 ?
Outgoing: > 100 µM

###

System: M19-MEL melanoma
Measurement notes: NCI tumour cell line growth inhibition, 48 h
Experimental readout: TGI

CC(=O)OC1COC(n2c(=S)n(-c3ccccc3)c(=O)c3cc(Br)ccc32)C(OC(C)=O)C1OC(C)=O (centres undefined)
> 100 µM
COc1cccc(/C=C2\CCC(C)(CN(C)C)C2=O)c1 (centres undefined)
> 100 µM
Cc1ccc(S(=O)(=O)N/N=C(\c2nc3ccc([N+](=O)[O-])cc3[nH]c2=O)C(O)c2ccccc2Cl)cc1 (centres undefined)
> 100 µM
Cc1cc(N(CCC#N)CCC#N)ccc1/C=C1N=C(/C=C/c2ccccc2)OC(=O)N\1
> 100 µM
O=C(NC12CC3CC(CC(C3)C1)C2)C(=O)c1c[nH]c2ccc(Cl)cc12
> 100 µM

Incoming: Give the measured TGI of CCOC(=O)c1ccc(N[C@@H]2c3cc4c(cc3C(C3=CC(=O)C(=O)C(OC)=C3)[C@H]3C(=O)OCC32)OCO4)cc1 (some centres undefined) .
Outgoing: 36.4 µM

Incoming: Name the reported TGI value associated with the molecule CC(=O)NNc1nc(C)c(C(=O)NNC(=O)C(=O)Nc2nc3ccc([N+](=O)[O-])cc3s2)s1
Outgoing: > 100 µM

Incoming: May I ask what TGI has been recorded for CC/C(=N\NS(=O)(=O)c1ccccc1)c1ccccc1 ?
Outgoing: > 100 µM

Incoming: Quick check: TGI of COc1c(Br)cc(Br)c(OC)c1-c1[nH]c(Br)c(Br)c1Br ?
Outgoing: 23 µM

###

Parameter: log10 of TGI. Scope: all listed entries.
Tested on: RXF 393 renal
Measurement notes: NCI tumour cell line growth inhibition, 48 h
Could you please treat all values as log10 of TGI in µM?

Cc1ncc(C(=O)Nc2ccc(CN3CCN(C)CC3)c(C(F)(F)F)c2)cc1C#Cc1cnc(NC2CC2)c2ncccc12
0.04

Now for the compound whose log10 of TGI we want.
Incoming: // query log10 of TGI value for entry C=CCO/N=C/c1cc(NC(=S)c2ccoc2C)ccc1Cl
Outgoing: 1.82

###

Overview of reported TGI across a group of compounds:
System: SF-295 CNS
Measurement notes: NCI tumour cell line growth inhibition, 48 h

O=C(NC(Cc1ccc(I)cc1)C(=O)O)c1ccc(I)cc1 (stereo unspecified)
> 100 µM
c1ccc2sc(SCSc3nc4ccccc4s3)nc2c1
> 100 µM
NC(=O)c1cccc(Nc2nccc(Nc3cccc(F)c3)n2)c1
> 25 µM

Incoming: For the compound O=c1oc(-c2ccc(O)c(O)c2)cc2cccc(O)c12 , what TGI is on record?
Outgoing: 80.2 µM

Incoming: State the recorded TGI for this entry: CC1=C(C(=O)Nc2ccccc2C)C(/C=C/c2ccccc2)C(C(=O)Nc2ccccc2C)=C(C)N1
Outgoing: > 100 µM

Incoming: What value of TGI has been recorded for this entry: CCOC(=O)/C(=C/c1cccc(OC)c1)N(CC)CC
Outgoing: > 100 µM

Incoming: Any idea what its TGI is? The compound is CC(=O)OC1COC(n2c(=S)n(-c3ccccc3)c(=O)c3cc(Br)ccc32)C(OC(C)=O)C1OC(C)=O (stereo unspecified)
Outgoing: > 100 µM

Incoming: Which TGI value belongs to Cc1ccc2nc3c(Cl)c(C)c(=O)cc-3sc2c1 ?
Outgoing: > 100 µM

Incoming: GET /values?readout=TGI&item= CCC(=C(c1ccc(OCCCN(C)C)cc1)c1ccc(OCCCN(C)C)cc1)c1ccc(Cl)cc1
Outgoing: 4.61 µM

Incoming: Give the measured TGI of O=c1ccc2cc3ccc4cccc5ccc(c2o1)c3c45 .
Outgoing: > 100 µM

Incoming: Recorded TGI for CCOC(=O)/C=C(\C)c1ccc(C)cc1C , please?
Outgoing: > 100 µM

###

Test system: NCI-H460 lung
Measurement notes: NCI tumour cell line growth inhibition, 48 h
Experimental readout: TGI

Answered examples (10):
Cc1ncc(C(=O)Nc2ccc(CN3CCN(C)CC3)c(C(F)(F)F)c2)cc1C#Cc1cnc(NC2CC2)c2ncccc12
1.19 µM
C=C1CC2(OC1=O)C(=O)N(CCCN1C(=O)C3(CC(=C)C(=O)O3)c3ccccc31)c1ccccc12 (centres undefined)
18.5 µM
Cc1ccc2nc3c(Cl)c(C)c(=O)cc-3sc2c1
> 100 µM
C[C@H](Cn1ncnn1)Nc1ncc2cc(Oc3ccc(F)cc3F)c(=O)n(C)c2n1
> 25 µM
CNC(=O)c1cc2c(Oc3ccc(NC(=O)C4(C(=O)Nc5ccc(F)cc5)CC4)cc3)ccnc2cc1OC
> 100 µM
O=S(=O)(CCOCc1ccc(-c2ccc3ncnc(Nc4ccc(OCc5cccc(F)c5)c(Cl)c4)c3c2)o1)c1ccccc1
> 25 µM
O=C1C=CC(=O)N1Nc1ccc([N+](=O)[O-])cc1[N+](=O)[O-]
> 100 µM
O=C(O)CCC(NC(=S)S)C(=O)O.[Na+].[Zn+2] (centres undefined)
> 50 µM
Cc1ccc2c(c1)Sc1ccc(N=NN(C)C)cc1N2C
> 100 µM
C=C[C@@H]1C(CO)=CCC2[C@H]1CCC1C(C)(C)C(=O)CC[C@]21C (some centres undefined)
> 100 µM

Incoming: Would you mind telling me what TGI value was observed for C=CCn1c(=O)ccn(COCCO)c1=O ?
Outgoing: > 100 µM

Incoming: What TGI value was documented for this molecule, Cl[Si]1(Cl)Oc2ccccc2O[Si](Cl)(Cl)Oc2ccccc2O1 ?
Outgoing: 65.9 µM

Incoming: Dear colleague, I am looking for the recorded TGI of the following molecule: CC1=C(C(=O)Nc2ccccc2C)C(/C=C/c2ccccc2)C(C(=O)Nc2ccccc2C)=C(C)N1
Outgoing: > 100 µM

Incoming: Need TGI of COc1ccc(-c2nnc(N3CCN(C(=O)CN4CCN(c5ccc(OC)cc5)CC4)CC3)nc2-c2ccc(OC)cc2)cc1 , thanks.
Outgoing: > 62.3 µM

Incoming: May I ask what TGI has been recorded for CCCCC1c2c([nH]c3ccccc23)C2C(=O)N(c3ccc(OC)cc3)C(=O)C2C1CCC (centres undefined) ?
Outgoing: > 10 µM

Incoming: Consider the molecule C=CCC1[C@@H](C(C)(C)C(C(C)=O)C(=O)C(=O)OC)OC(C(C)(C)C)N1C(=O)OC (some centres undefined) and give its measured TGI.
Outgoing: > 100 µM

Incoming: TGI lookup needed for COc1cc(NS(C)(=O)=O)ccc1N1Cc2cnc3ccc4[nH]c(C)cc1c4c23 , thanks.
Outgoing: > 100 µM

Incoming: Query: TGI; subject: CCN(C(=S)N[C@@H](Cc1ccccc1)C(=O)N[C@@H](CC(C)C)C(=O)OC)c1ccccc1
Outgoing: > 100 µM

Incoming: Which TGI reading was recorded for the molecule CC(CC(=O)Nc1ccc(NC(=O)CC(C)N=NC(N)=S)cc1)N=NC(N)=S (centres undefined) ?
Outgoing: > 100 µM

###

Test system: 786-0 renal
Measurement notes: NCI tumour cell line growth inhibition, 48 h
The molecules listed here are annotated with their TGI.

# count of solved cases: 4
CCCCCCCCCCN=C(c1ccc(N(C)C)cc1)c1ccc(N(C)C)cc1
36.8 µM
CCN(CCO)CC1COc2ccccc2O1 (stereo unspecified)
> 100 µM
O=C(/C=C/c1ccccc1)CC(c1ccccc1)N1CCOCC1 (stereo unspecified)
3.61 µM
COc1cc(C2CC(C)(Nc3ccccc3)Oc3cc4c(cc32)OCO4)cc(OC)c1OC (stereo unspecified)
> 78.4 µM

Incoming: Could you tell me which TGI is on file for Cc1ccccc1C(O)(c1nccn1C)c1nccn1C ?
Outgoing: > 100 µM

Incoming: Dear colleague, I am looking for the recorded TGI of the following molecule: CC(CC(=O)Nc1ccc(NC(=O)CC(C)N=NC(N)=S)cc1)N=NC(N)=S (stereo unspecified)
Outgoing: > 100 µM

Incoming: Given the entry CCSc1nc(N)c2cn[nH]c2n1 , report its measured TGI.
Outgoing: > 100 µM

Incoming: For the molecule shown here, CC(=O)OCC1OC(n2cc([N+](=O)[O-])c(=O)[nH]c2=O)C(OC(C)=O)C(OC(C)=O)C1OC(C)=O (stereo unspecified) , give the reported TGI.
Outgoing: > 100 µM

Incoming: If you can, please state the reported TGI value of COC1OC(C)C(OCc2ccccc2)C(OS(=O)(=O)c2ccc(C)cc2)C1OS(=O)(=O)c1ccc(C)cc1 (stereo unspecified) .
Outgoing: > 100 µM

Incoming: Any idea what its TGI is? The molecule is O=C1CN2C(c3ccccc3)=NN(c3ccc([N+](=O)[O-])cc3)C2(c2ccccc2)c2cc(Cl)ccc2N1CC1CC1 (stereo unspecified)
Outgoing: > 100 µM
